system: MDA-MB-435; test: NCI tumour cell line growth inhibition, 48 h
The source made the active and inactive calls. Cut-off read from the data, not from the text of the source: active = GI50 up to about 1.1 µM and inactive = higher.
GI50 reference

Examples with their reported GI50 follow.
[[record]]
compound = "CNn1c(-c2ccc(C)cc2)n[nH]c1=O"
system_under_test = "MDA-MB-435"
result = "> 100 µM (inactive)"

[[record]]
compound = "COC(=O)C1=C(C(=O)OC)C2(C)CCC(=O)C1O2 (centres undefined)"
system_under_test = "MDA-MB-435"
result = "> 10 µM (inactive)"

[[record]]
compound = "c1ccc(N/N=N/c2ccc(-c3nc4ccccc4[nH]3)cc2)nc1"
system_under_test = "MDA-MB-435"
result = "21.6 µM (inactive)"


For the compound NS(=O)(=O)c1nnc(NS(=O)(=O)c2ccccc2C(=O)O)s1 , give its measured GI50 value.
> 100 µM (inactive)

====

system: A549; assay: NCI tumour cell line growth inhibition, 48 h
Calls of active or inactive are those of the source. No stated cut-off is given here; in the data, active = GI50 up to about 1.1 µM and inactive = higher.
PARAMETER: GI50

[[record]]
molecule = "COc1cc2oc(=O)ccc2cc1C1OC(=O)C2OC21C (stereo not given)"
result = "> 100 µM (inactive)"

[[record]]
molecule = "NCCCCNCCCN1CCOC1=O"
result = "> 100 µM (inactive)"

[[record]]
molecule = "O=c1[nH]c(=O)n(C2OC(CO)C(O)C2O)c2ncc(-c3ccc(-c4ccccc4)cc3)nc12 (stereo not given)"
result = "> 20 µM (inactive)"

[[record]]
molecule = "CCCCCCCCOCC(CO)OCCCCCCCC (stereo not given)"
result = "18.9 µM (inactive)"


For the molecule Cc1ccc(NC(=O)CC(=O)n2nc(-c3ccccc3)c(/N=N/c3ccccc3Cl)c2-c2ccccc2)cc1 , give its measured GI50 value.
98.2 µM (inactive)

For the molecule COC(=O)C1CCC(=O)N1C(c1ccccc1)c1cc(OC)c(OC)c(OC)c1 (stereo not given) , give its measured GI50 value.
54.2 µM (inactive)

For the molecule C[C@]12CCC(=O)C=C1CC[C@@H]1C2CC[C@]2(C)c3nn(-c4ccc(F)cc4)nc3CC12 (stereo not given in full) , give its measured GI50 value.
> 100 µM (inactive)

For the molecule COc1cc2c3c(n(C)c(=O)c2cc1OC)-c1cc2c(cc1/C3=C\CCCCCBr)OCO2 , give its measured GI50 value.
9.08 µM (inactive)

For the molecule CC1OC2(CC(OCc3ccccc3)C1OCc1ccccc1)OCCO2 (stereo not given) , give its measured GI50 value.
50.7 µM (inactive)

====

GI50 reference
test system: HL-60; assay: NCI tumour cell line growth inhibition, 48 h
The source made the active and inactive calls. No stated cut-off is given here; in the data, active = GI50 up to about 1.1 µM and inactive = higher.

[[record]]
compound = "O=CC(O)C(O)C1OC(=O)c2cc(O)c(O)c(O)c2C2=C(O)C(O)=C3OC(=O)c4c(c(O)c(O)c5c4C3C2C(=O)O5)-c2c(cc(O)c(O)c2O)C(=O)OCC1O (stereo not drawn)"
parameter = "GI50"
result = "12.3 µM (inactive)"

[[record]]
compound = "CC1CC[P+](c2ccccc2)(c2ccccc2)CC1"
parameter = "GI50"
result = "24.5 µM (inactive)"


For the compound C[C@]12CCC(=O)C(O)=C1CC[C@@H]1[C@@H]2CC[C@]2(C)C(=O)CC[C@@H]12 , give its measured GI50 value.
> 80.9 µM (inactive)

====

test system: LOX IMVI; test: NCI tumour cell line growth inhibition, 48 h
The source made the active and inactive calls. No stated cut-off is given here; in the data, active = GI50 up to about 1.1 µM and inactive = higher.
The reply should be one of these categories: T for active, F for inactive

Field: example entries. Status: answers known.
[[record]]
molecule = "CN(C)c1ccc(C(=NNC(=O)c2cc3ccccc3[nH]2)c2ccc(N(C)C)cc2)cc1"
assigned_category = "T"

[[record]]
molecule = "Cn1c(=O)c2nc(CCCCc3nc4c(=O)n(C)c(=S)n(C)c4[nH]3)[nH]c2n(C)c1=S"
assigned_category = "F"

[[record]]
molecule = "CNn1c(-c2ccc(C)cc2)n[nH]c1=O"
assigned_category = "F"

[[record]]
molecule = "COc1ccc2c(c1)CCN=C2Cc1cc(OC)c(OC)cc1CCCl"
assigned_category = "F"

[[record]]
molecule = "COc1cc(/C=C/C(=O)C(C)(C)C)cc(OC)c1OC"
assigned_category = "F"


Would you mind telling me which call this test gave COC(=O)C(Cc1ccccc1)NP(=O)(O)OCC1OC(n2cc(I)c(=O)[nH]c2=O)CC1O (configuration not stated) ?
F

Would you mind telling me which call this test gave COC(=O)C1=C(C(=O)OC)C2(C)CCC(=O)C1O2 (configuration not stated) ?
F

Would you mind telling me which call this test gave Cc1ccccc1NC(=O)Cc1csc(N/N=C2\NC(=O)/C(=C/c3cccc([N+](=O)[O-])c3)S2)n1 ?
F

Would you mind telling me which call this test gave CC(C)CCCC(C)[C@H]1CCC2[C@@H]3CCC4Cc5nc6c(nc5C[C@]4(C)C3CC[C@@]21C)CC1CC[C@@H]2C(CC[C@@]3(C)C2CC[C@@H]3O)[C@@]1(C)C6 (some centres not stated) ?
F

Would you mind telling me which call this test gave O=C1CCc2ccc(O)c(c2)Oc2ccc(cc2)C(Sc2ccccc2)CCO1 (configuration not stated) ?
F

Would you mind telling me which call this test gave Cc1cc2c(c(C(=O)NCC(=O)O)c1)Oc1c(cc(C)cc1C(=O)NCC(=O)O)S2 ?
F

Would you mind telling me which call this test gave Cc1ccc(NC(=O)CSc2nc(O)nc3[nH]cnc23)cc1 ?
F

====

GI50 reference
system: NCI-H226; assay: NCI tumour cell line growth inhibition, 48 h
Activity calls are given as the source filed them. No stated cut-off is given here; in the data, active = GI50 up to about 1.1 µM and inactive = higher.

Examples with their reported GI50 follow.
[[record]]
molecule = "O=C1C=CC2=[N+]([O-])C(c3ccccc3)(c3ccccc3)/C(=N\\c3ccccc3)C2=C1"
system_under_test = "NCI-H226"
parameter = "GI50"
result = "8.89 µM (inactive)"

[[record]]
molecule = "O=C1ON(Cc2ccccc2)C(c2ccccc2)N1c1ccccc1 (centres undefined)"
system_under_test = "NCI-H226"
parameter = "GI50"
result = "99.1 µM (inactive)"

[[record]]
molecule = "CC(C)(C)c1ccc(-n2c3nc(=O)n(-c4ccccc4C(F)(F)F)c(=O)c-3cc3ccccc32)cc1"
system_under_test = "NCI-H226"
parameter = "GI50"
result = "17 µM (inactive)"


Report the value of GI50 obtained on NCI-H226 for O=C(/C=C/C(Cl)(Cl)Cl)Nc1ccc(Cl)cc1 .
15.1 µM (inactive)

====

test system: 786-0; experiment: NCI tumour cell line growth inhibition, 48 h
Calls of active or inactive are those of the source. Rule as the data show it: active = GI50 up to about 1.1 µM and inactive = higher.
The reply should be one of these categories: active, inactive

Field: example entries. Status: answers known.
[[record]]
compound = "CC(C)C[C@H](NC(=O)CCc1cccc2ccccc12)B(O)O"
assigned_category = "active"

[[record]]
compound = "Cc1ccc(NC(=O)CSc2nc(O)nc3[nH]cnc23)cc1"
assigned_category = "inactive"

[[record]]
compound = "O=c1[nH]c(=O)n(C2OC(CO)C(O)C2O)c2ncc(-c3ccc(-c4ccccc4)cc3)nc12 (centres undefined)"
assigned_category = "inactive"

[[record]]
compound = "COc1nc(NC2OC(COC(C)=O)C(OC(C)=O)C(OC(C)=O)C2OC(C)=O)c2c(OC(C)=O)c(C)c(=O)oc2n1 (centres undefined)"
assigned_category = "inactive"

[[record]]
compound = "NS(=O)(=O)c1nnc(NS(=O)(=O)c2ccccc2C(=O)O)s1"
assigned_category = "inactive"


Moving on to another compound below.
Would you mind telling me which call this test gave Cc1cc(N2CCOCC2)nc2ccc(Cc3ccc4nc(N5CCOCC5)cc(C)c4c3)cc12 ?
inactive

====

GI50 reference
tested on: UO-31; assay: NCI tumour cell line growth inhibition, 48 h
Active and inactive are the calls of the source. Rule as the data show it: active = GI50 up to about 1.1 µM and inactive = higher.

For the compound CCC1(CC)C(=O)NN(C(=O)c2ccccc2)C1=O , give its measured GI50 value.
> 100 µM (inactive)

For the compound COc1cc(CNc2nc3ccccc3nc2C(=O)O)cc(OC)c1OC , give its measured GI50 value.
49.2 µM (inactive)

For the compound CC(=O)O[C@@]12CO[C@@H]1CC(O)[C@@]1(C)C(=O)[C@H](O)C3=C(C)C(O)C[C@@](O)(C(OC(=O)c4ccccc4)C12)C3(C)C (some centres not stated) , give its measured GI50 value.
46.1 µM (inactive)

====

system: SW-620; assay: NCI tumour cell line growth inhibition, 48 h
Active and inactive are the calls of the source. Rule as the data show it: active = GI50 up to about 1.1 µM and inactive = higher.
GI50 reference

[[record]]
compound = "O=C1ON(Cc2ccccc2)C(c2ccccc2)N1c1ccccc1 (configuration not stated)"
parameter = "GI50"
result = "> 100 µM (inactive)"


Report the value of GI50 obtained on SW-620 for C=CCN(c1cc(OCc2ccccc2)c(NC(C)=O)cc1[N+](=O)[O-])S(C)(=O)=O .
> 100 µM (inactive)

Report the value of GI50 obtained on SW-620 for O=c1[nH]c(C2CCCCC2)nc2c(Cl)cccc12 .
> 100 µM (inactive)

Report the value of GI50 obtained on SW-620 for COc1ccc2c(c1)O[C@@H]1C(O)Oc3cc(OC)c(OC)cc3[C@]1(O)C2=O (some centres not stated) .
88.7 µM (inactive)

Report the value of GI50 obtained on SW-620 for O=S(=O)(O)c1ccc(/N=N\c2ccc(/N=N/c3ccc(/C=C/c4ccc(/N=[N+](\[O-])c5ccc(/C=C/c6ccc(/N=N/c7ccc(/N=N/c8ccc(S(=O)(=O)O)cc8)c8ccccc78)cc6S(=O)(=O)O)c(S(=O)(=O)O)c5)cc4S(=O)(=O)O)c(S(=O)(=O)O)c3)c3ccccc23)cc1 .
> 100 µM (inactive)

Report the value of GI50 obtained on SW-620 for COc1cc2c(cc1C)NC(=O)/C2=C/c1c(Cl)[nH]c2ccccc12 .
4.56 µM (inactive)

Report the value of GI50 obtained on SW-620 for C=C(C)CCN[Si](c1ccccc1)(c1ccccc1)C(C)(C)C .
40 µM (inactive)
